B1: Lysozyme C, P61626 (parent)
chain: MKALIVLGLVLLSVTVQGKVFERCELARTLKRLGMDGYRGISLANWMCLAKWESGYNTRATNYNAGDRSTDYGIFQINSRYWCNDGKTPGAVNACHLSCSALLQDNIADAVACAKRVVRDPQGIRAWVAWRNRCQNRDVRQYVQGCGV

variants of: B1; conditions: Homo sapiens; pH 2.7; Thermal; DSC; glycine-HCl 0.05 M; reversible: yes; structure 1LZ1; whole UniProt chain shown

>  <SEQUENCE_VARIANT>
T70A

>  <UNIT_OF_MEASUREMENT>
°C

>  <Tm>
61.9

$$$$
>  <SEQUENCE_VARIANT>
T70V

>  <UNIT_OF_MEASUREMENT>
°C

>  <Tm>
62.1

$$$$
>  <SEQUENCE_VARIANT>
T58A

>  <UNIT_OF_MEASUREMENT>
°C

>  <Tm>
59.4

$$$$
>  <SEQUENCE_VARIANT>
T88A

>  <UNIT_OF_MEASUREMENT>
°C

>  <Tm>
60

$$$$
>  <SEQUENCE_VARIANT>
T88V

>  <UNIT_OF_MEASUREMENT>
°C

>  <Tm>
62.6

$$$$
>  <SEQUENCE_VARIANT>
T58V

>  <UNIT_OF_MEASUREMENT>
°C

>  <Tm>
59.2

$$$$

// data source = FireProtDB (doi:10.1021/bi9910169)
